System: RXF 393 renal
Assay: NCI tumour cell line growth inhibition, 48 h
Entries and their measured TGI follow.
Use µM as the unit, but write only the number.

# annotated cases, reported TGI shown
- COMPOUND: "CC(C)=CCNc1ncnc2c1ncn2C1OC(CO)C(O)C1O (stereo not drawn)"
  READOUT NAME: "TGI"
  RECORDED VALUE: 2.6
- COMPOUND: "COc1cccc2c1OC(c1ccc(Cl)cc1)C([N+](=O)[O-])=C2 (stereo not drawn)"
  READOUT NAME: "TGI"
  RECORDED VALUE: 3.32

Req: Identify measured TGI obtained with RXF 393 renal for CN(C)CCCNC(=O)c1cc2[nH]c3c(cnc4ccc([N+](=O)[O-])cc43)c(=O)c2n1C .
Resp: 18.7

Req: Send back RXF 393 renal TGI of CCCCCCCCCC1(N=[N+]=[N-])C(=O)c2ccccc2N(C)C1=O (stereo not drawn) only.
Resp: 55.3

Req: Give reported TGI for Cc1cc2c(cc1Cl)SC(NS(=O)(=O)c1ccc(Cl)cc1)=NS2(=O)=O (RXF 393 renal)
Resp: 66.5

Req: Under RXF 393 renal, report TGI for Oc1cn(-c2ccc(Cl)cc2)nc1-c1nnc(-c2ccccc2)o1
Resp: 9.55

----------
Test system: NCI-H23 lung
Test: NCI tumour cell line growth inhibition, 48 h
READOUT NAME: TGI

Here's what some known entries look like.
- MOLECULE: "CCN(CC)CC1CCCCCCCCCCC1=O (stereo not given)"
  SUBJECT OF TEST: "NCI-H23 lung"
  RECORDED VALUE: "> 100 µM"
- MOLECULE: "O=C1NC(=O)C(c2cnc3ccccn23)=C1c1cn2c3c(cc(F)cc13)CN(C(=O)N1CCCCC1)CC2"
  SUBJECT OF TEST: "NCI-H23 lung"
  RECORDED VALUE: "52.3 µM"
- MOLECULE: "CCCCC(C(=O)C(=O)NC1C2CC3CC(C2)CC1C3)C(=O)C(C)C (stereo not given)"
  SUBJECT OF TEST: "NCI-H23 lung"
  RECORDED VALUE: "> 100 µM"

Req: For the molecule CCCCCCCCCC1(N=[N+]=[N-])C(=O)c2ccccc2N(C)C1=O (stereo not given) , give its reported TGI.
Resp: 97.4 µM

Req: Please supply the value of reported TGI for the item CN1CCN(C(=O)CCNC(=O)Cc2ccc(C(=O)c3ccccc3)cc2)CC1
Resp: > 100 µM

Req: Give recorded TGI. C=C(CNCc1ccccc1)c1ccc(C(=O)Nc2ccccc2N)cc1
Resp: 8.23 µM

Req: Return reported TGI. Input molecule: COc1cc(C(=O)n2c3ccc(Br)cc3c3nc4ccccc4nc32)cc(OC)c1OC
Resp: > 100 µM

Req: Determine its reported TGI: CCOC(=O)C1(C#N)C(c2ccccc2)CC(O)(c2ccc(OC)cc2)C(C(=O)c2ccc(OC)cc2)C1c1ccccc1 (stereo not given)
Resp: > 100 µM

Req: Respond only with TGI recorded for CC(C)(C)OC(=O)N1CCc2[nH][nH]c(=O)c2C1
Resp: > 100 µM

Req: Let me know recorded TGI for CCCCC1=NNC(=O)C1 , thanks.
Resp: > 100 µM

----------
System: SK-MEL-28 melanoma
Experiment: NCI tumour cell line growth inhibition, 48 h; in the data active = GI50 below about 0.43 µM; inactive = the rest
Write down one outcome, taken from active, inactive

- COMPOUND: "O=C(Nc1ccc(Cl)cc1F)c1ccccc1O"
  CLASS NAME: "inactive"
- COMPOUND: "COc1ccc(C(C)=O)cc1N1C(=O)C2C(C1=O)C1(c3ccccc3)C(=O)C2(c2ccccc2)C(c2ccc(C)cc2)=C1c1ccc(C)cc1 (stereo not drawn)"
  CLASS NAME: "inactive"
- COMPOUND: "CCN1CCN(C(c2ccc(C(F)(F)F)cc2)c2ccc3cccnc3c2O)CC1 (stereo not drawn)"
  CLASS NAME: "inactive"
- COMPOUND: "COc1cc(N(CCC#N)CCC#N)ccc1/C(N=Nc1ccc([N+](=O)[O-])cc1)=N/NC(=O)c1cc(Br)ccc1O"
  CLASS NAME: "inactive"

Req: Please state the recorded outcome for this compound: CCCCCCNC(=O)c1cc(NCc2cc(O)ccc2O)ccc1O
Resp: inactive

Req: Kindly provide the recorded test outcome for the following compound: Cn1c2ccccc2c2c3c(c4c5cc(Br)ccc5n(C)c4c21)C(=O)N(O)C3=O
Resp: inactive

Req: What was the test verdict on CC(C)=CC/C=C(/C)[C@H]1CC[C@]2(C)[C@@H]1CC[C@@H]1[C@@]3(C)CCCNC(C)(C)[C@@H]3CC[C@]12C ?
Resp: inactive

Req: Look up the recorded call for CC(C)CCN1c2nc(Nc3cc(F)c(O)c(F)c3)ncc2N(C)C(=O)C1C (stereo not drawn) in this test.
Resp: inactive

Req: Each compound tested received a call. Report the one for CN1CCN(CCOc2ccc(-c3cnc4c(-c5ccccc5F)cnn4c3)cc2)CC1 .
Resp: inactive

Req: For CC(C)c1ccc2c(c1)CC[C@@H]1[C@@](C)(C(=O)O)CCC[C@]21C , what call appears in the results of this test?
Resp: inactive

Req: Fill in: this test's call for C=C1C(=O)O[C@@H]2C[C@@H]1CC/C(C)=C/CC/C(C)=C/CC[C@@]2(C)O is ___
Resp: inactive

Req: Each compound tested received a call. Report the one for OC[C@H]1C[C@](O)(c2ccc(Cl)cc2)[C@@H](c2ccc(Cl)cc2)O1 .
Resp: inactive

Req: Which outcome did this test record for the compound Cn1cc(CO)c2c1C(=O)C=C(N1CC1)C2=O ?
Resp: active

Req: Kindly provide the recorded test outcome for the following compound: Cc1ccc(C)c(C2=C(c3cn(C)c4ccccc34)C(=O)NC2=O)c1
Resp: inactive
